System: MS2 coat protein
Assay: apparent KD of MS2 coat protein; designed switch direction (-1 OFF switch, 1 ON switch): -1; higher = weaker reporter binding
Details: Eterna round: R95; input ligand: FMN 200 uM
Could you label it y if measured apparent KD of MS2 coat protein is 90 nM or higher, and n otherwise?

[
  {
    "primarySequence": "CCUCAACAGUAGGAUAUCAUCAAACUAUUGUGAUGAGAAGGACUGACAUGAGGAUCACCCAUGUUAACGUGAUG [Exclusion 6 - 6:c] (puzzle: Exclusion 6)",
    "className": "n"
  },
  {
    "primarySequence": "AAUGUCUGAGGAUAUCGAUUAGUGUACAUGAGGAUCACCCAUGUUUUUAUUUGUAUAUUACGAGAAGGCAGUGGAA [JR_E5_Sub087] (puzzle: Exclusion 5)",
    "className": "n"
  },
  {
    "primarySequence": "UGUACUAUGCGUGCUGACAUGCGUAGUGCAGCAGGUGUUACAUGAGGAUCACCCAUGUCCUCAUUUGCUCGUCUUAU [SL-sv3-2.07 JL mod] (puzzle: Sensor v3, turn-off variant 2)",
    "className": "y"
  },
  {
    "primarySequence": "CUAGAUCUUCGGAUCUAGUACAUGAGGAUCACCCAUGUGACGAGUAUAUCCUCAAACAAGCUUUUUGCUCGUCUUAU [Sensor v3 - Turn-off variant 1 - 21] (puzzle: Sensor v3, turn-off variant 1)",
    "className": "y"
  },
  {
    "primarySequence": "AGGUGGAAGCAGGAUAUGCUUGUAUAAUUGAUAGCAGAAGGGCUAACAUGAGGAUCACCCAUGUAAGAGGUGUA [JR_E6_Sub058] (puzzle: Exclusion 6)",
    "className": "y"
  },
  {
    "primarySequence": "UUUUAACAUGAGGAUCACCCAUGUGAGGAUAUGGUUUUUUUUUUUUUUUUUUUUUUUUCCAGAAGGCACAUUUU [My solution] (puzzle: Exclusion 1)",
    "className": "n"
  },
  {
    "primarySequence": "GAAGAGACAGGAUAUACAUGAGGAUCACCCAUGUGAGGAGGUUGGAGGCGGAGAAGGUGUAGAAGGGUCAAAGA [JR_Exclu3_Sub022] (puzzle: Exclusion 3)",
    "className": "n"
  },
  {
    "primarySequence": "AGUACUAACACGAAAGUGUUAGUACAAUAAGCUAGUGGAACAUGAGGAUCACCCAUGUCCUCAUUAGCUCGUCUUGG [Mat - Sensor v3 - Turn-off var 2 - D40] (puzzle: Sensor v3, turn-off variant 2)",
    "className": "n"
  },
  {
    "primarySequence": "UAGUAUAUCUAUGGGAGUAACAUGAGGAUCACCCAUGUAUGUCUUGUUUUUUGUUCGUCAUAGGCCGGUUGAACGGU [JR_SV3TOV1_Sub027] (puzzle: Sensor v3, turn-off variant 1)",
    "className": "n"
  }
]

* * *

System: K4 kissing-loop RNA reporter;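 also: bound reporter read as fluorescence of individual clusters on recovered sequencing chips by microscopy, with normalized cluster intensities fitted with a binding model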
Experiment: apparent KD of K4 kissing-loop reporter; higher = weaker reporter binding
Conditions: Eterna round: R107; input ligand: tryptophan 2.4 mM

[
  {
    "primarySequence": "UCGGGCGGCUGAAGGAGCGGGCGGGCCCGAGUGAUGUUCGGGUGGGCCGUGAGGCCCGGAGCCCAGGUAGGUCGCGGUUCCGCCC [#2 Same State - Arginine B Attempt #23 (HarryS)]",
    "apparent KD of K4 kissing-loop reporter (µM)": 0.175
  },
  {
    "primarySequence": "CUCGUGGGUUUGAGAGGGCUUGUGGGAAGAUAGGAUAUCUAGGGAGGGAGAAGGAUCUAUAGAAUAUAGUGAUGUUAUAUAUGGG [#05 K4 FMN A Same State]",
    "apparent KD of K4 kissing-loop reporter (µM)": 0.122
  },
  {
    "primarySequence": "UGCACGGGCUCGGCCGCCACUCCAGCGGGUCGCAAGGUCCGCUACUGAGUGAUGUUCGGUUGGAGGAGGACCGGGAGCCCGUGCG [#2 Exclusion - Tryptophan B Attempt #31 (HarryS)]",
    "apparent KD of K4 kissing-loop reporter (µM)": 0.126
  },
  {
    "primarySequence": "CCUAUCUGUUACGAUACCAGUCAAAGAUAUUUUAUCAAUGCCCUCACCGAGUGAUGUUCGGACCCUUGGCAGCGUCUGGGAUAGG [pnnbmullin]",
    "apparent KD of K4 kissing-loop reporter (µM)": 0.15
  },
  {
    "primarySequence": "UGAUACCAGACGGCCGCCACUCCCGUAAGUCAAAGACUUACGAAGAGAGUUAUCCAGUGAUGUUGGAGGACCGGGUCUGGUAUCU [FiskerMod 14 - Jieux - Exclusion - Tryptophan B]",
    "apparent KD of K4 kissing-loop reporter (µM)": 0.261
  },
  {
    "primarySequence": "GAACGGCGGGCGGCCGCCACUGGUAUACGAGUGAUGUUCGGAUAUACGUGAUGUAAGGUAAUUAUCAGGACCGGGUCAGAGCCGG [#16 K4 Tryptophan B Same State]",
    "apparent KD of K4 kissing-loop reporter (µM)": 0.167
  },
  {
    "primarySequence": "AUUUUUUUGUCAGGAUAUUAGUGUGCGUUUGGUUUGUUAGUGAUGUUGAUAUUUUGUUUAUGUAUUUAAGAAGGGAUUUAGCGGU [aaeatemullin]",
    "apparent KD of K4 kissing-loop reporter (µM)": 0.349
  },
  {
    "primarySequence": "UUGUUUGGUUGAGAGGUUGGGCGAGAUGAUACCAGUAGAGAAGAGUACCCUUGGCAGCAUAAGAAAGAUAUAGUGAUGUUGUAUA [SSTheophA.P]",
    "apparent KD of K4 kissing-loop reporter (µM)": 0.396
  },
  {
    "primarySequence": "GAAAGAAAGUAUGAUACCAGACACCCGAGUGAUGUUCGGAGCAGUGUGAUGUUCUUUUAAGUCCCUUGGCAGCAUAAAAGAAAAG [whbob_SS_Theo_B_sa84]",
    "apparent KD of K4 kissing-loop reporter (µM)": 0.0917
  },
  {
    "primarySequence": "AUGCGGUGGAGGCUACCGCUAUUCUGAGAAGGAGCGCAGAUGACUGCAGGUAGGUCGCUUAGAGCUUGCAGUGAUGUUGCAAGUU [Islatimaed]",
    "apparent KD of K4 kissing-loop reporter (µM)": 0.204
  },
  {
    "primarySequence": "CGCCGUAAGGCGAGCGCUCCCACUCCGGAAGGAGCGCCCGGAAGGGCAGGUAGGUCGCCGGAGUGAUGUUCCGGUGGAGGGCUCG [#2 Exclusion - Arginine A Attempt #12 (Inspired by Omei)]",
    "apparent KD of K4 kissing-loop reporter (µM)": 0.317
  },
  {
    "primarySequence": "GUCUGAUGCGUUGAUACCAGUCCUUCAGUGAUGUUGCAAGCGCGGCCUAUCAAGCAAUCCGACCCUUGGCAGCAAUAGGUCCGAA [theeternabot_exclusion_KL_Theo_B_9]",
    "apparent KD of K4 kissing-loop reporter (µM)": 0.661
  },
  {
    "primarySequence": "ACCGCAUUGGGAUGAUCCCAAUGCGCUGGUCGAGGACCGGUACGGCCGCCACUCGUCCAGUGAUGUUGGACUAGGGCAACUGAAG [Bileesma]",
    "apparent KD of K4 kissing-loop reporter (µM)": 0.109
  },
  {
    "primarySequence": "UGCUUUAUCAGAAGGAGCGCGUUGGUCAUAAUAAUAAUCAGUGAUGUUGAUAUAUGAGGAUUGCAGGUAGGUCGCUGAUAUAGCU [KL-XARG-B1]",
    "apparent KD of K4 kissing-loop reporter (µM)": 0.229
  },
  {
    "primarySequence": "GGUCGGAGUGAUGUUCCGAGCUUCAGUCAUCGAGGACCGGUACGGCCGCCACUCGUCUACUAUGACGUAUCACCCUCCACGUGUU [theeternabot_sameState_KL_Trp_A_33]",
    "apparent KD of K4 kissing-loop reporter (µM)": 0.125
  },
  {
    "primarySequence": "AGAGUUAUGCGAGGAUAUGCAGUUAGUACUCAAAGAGUACUAACGCAGAGUGAUGUUCUGUGAAACGCAGAAGGUGCAUAACUCA [Omei KL FMN B SS B v4]",
    "apparent KD of K4 kissing-loop reporter (µM)": 0.485
  },
  {
    "primarySequence": "UCCUCGAAUCGACCUCGAAAGAGGAUGGAUACCAGUCUUGAUAAAGACCCUUGGCAGCCAGUGAUGUUGGAACGAGGUAAAUAAA [#SwitchBubble 19 #K4Late]",
    "apparent KD of K4 kissing-loop reporter (µM)": 0.359
  },
  {
    "primarySequence": "UGGAUAUAGUGAUGUUAUAUAGAGAUGGAUACCAGUUUAGAGAAGAGCCCUUGGCAGCCGAAAGAAGUAUCAUUAGAGAAGAAUG [ExTheophyl.Al]",
    "apparent KD of K4 kissing-loop reporter (µM)": 0.179
  },
  {
    "primarySequence": "UUAUACAACUGAAGGAGCGCCAGUGAUGUUGGCGUGACGACUGCUUCCUUCGCCGAGUCCUGGCAGGUAGGUCGCAGUUGCUGAA [Oratgere]",
    "apparent KD of K4 kissing-loop reporter (µM)": 0.0948
  },
  {
    "primarySequence": "UUUGGAAGCGGUGUUGAUUAGGGAGCGGAAGGAGCGCCGAUUAUGGCAGGUAGGUCGCCGGAAUGUAGUGAUGUUGCAUAGAGGU [ExArgA.X]",
    "apparent KD of K4 kissing-loop reporter (µM)": 0.128
  },
  {
    "primarySequence": "UCUGCAAAGUCGGCCGCCACUCCGGGCCCUAUAAAUGGGCGCAGUGAUGUUGCGGCUAGGCCUCUGAGGACCGGGACUUCGUAGA [Somale]",
    "apparent KD of K4 kissing-loop reporter (µM)": 0.107
  },
  {
    "primarySequence": "AAUCAAUACAGAAGGAGCGUGACAAUUACUAUUGAAUUAGGAGCUAGUGAUGUUAGCAUAACACAGGUAGGUCGCUGUACAUUUA [JR_SSArginiB_Sub012]",
    "apparent KD of K4 kissing-loop reporter (µM)": 0.148
  },
  {
    "primarySequence": "UGAUACCAGACUGAUACCAGCGAGUGAUGUUUGCUGAUCUAAAGCAGUCAAAGACUGCCUUGCCCUUGGCAGCAGUCUGGUAUCU [TheoBX 26 #SwitchBubble #StaticStem]",
    "apparent KD of K4 kissing-loop reporter (µM)": 0.264
  }
]
